Target: T1, ErbB4 (Rattus norvegicus, UniProt Q62956)
T1 construct: forming the ErbB2/ErbB4 complex in cardiomyocytes and the ErbB2/ErbB3 complex in Schwann cells; endogenous in cells; host or cells: primary neonatal rat cardiomyocytes (Sprague Dawley pups, 0 to 4 days old)
T1 sequence (Q62956 26-1308): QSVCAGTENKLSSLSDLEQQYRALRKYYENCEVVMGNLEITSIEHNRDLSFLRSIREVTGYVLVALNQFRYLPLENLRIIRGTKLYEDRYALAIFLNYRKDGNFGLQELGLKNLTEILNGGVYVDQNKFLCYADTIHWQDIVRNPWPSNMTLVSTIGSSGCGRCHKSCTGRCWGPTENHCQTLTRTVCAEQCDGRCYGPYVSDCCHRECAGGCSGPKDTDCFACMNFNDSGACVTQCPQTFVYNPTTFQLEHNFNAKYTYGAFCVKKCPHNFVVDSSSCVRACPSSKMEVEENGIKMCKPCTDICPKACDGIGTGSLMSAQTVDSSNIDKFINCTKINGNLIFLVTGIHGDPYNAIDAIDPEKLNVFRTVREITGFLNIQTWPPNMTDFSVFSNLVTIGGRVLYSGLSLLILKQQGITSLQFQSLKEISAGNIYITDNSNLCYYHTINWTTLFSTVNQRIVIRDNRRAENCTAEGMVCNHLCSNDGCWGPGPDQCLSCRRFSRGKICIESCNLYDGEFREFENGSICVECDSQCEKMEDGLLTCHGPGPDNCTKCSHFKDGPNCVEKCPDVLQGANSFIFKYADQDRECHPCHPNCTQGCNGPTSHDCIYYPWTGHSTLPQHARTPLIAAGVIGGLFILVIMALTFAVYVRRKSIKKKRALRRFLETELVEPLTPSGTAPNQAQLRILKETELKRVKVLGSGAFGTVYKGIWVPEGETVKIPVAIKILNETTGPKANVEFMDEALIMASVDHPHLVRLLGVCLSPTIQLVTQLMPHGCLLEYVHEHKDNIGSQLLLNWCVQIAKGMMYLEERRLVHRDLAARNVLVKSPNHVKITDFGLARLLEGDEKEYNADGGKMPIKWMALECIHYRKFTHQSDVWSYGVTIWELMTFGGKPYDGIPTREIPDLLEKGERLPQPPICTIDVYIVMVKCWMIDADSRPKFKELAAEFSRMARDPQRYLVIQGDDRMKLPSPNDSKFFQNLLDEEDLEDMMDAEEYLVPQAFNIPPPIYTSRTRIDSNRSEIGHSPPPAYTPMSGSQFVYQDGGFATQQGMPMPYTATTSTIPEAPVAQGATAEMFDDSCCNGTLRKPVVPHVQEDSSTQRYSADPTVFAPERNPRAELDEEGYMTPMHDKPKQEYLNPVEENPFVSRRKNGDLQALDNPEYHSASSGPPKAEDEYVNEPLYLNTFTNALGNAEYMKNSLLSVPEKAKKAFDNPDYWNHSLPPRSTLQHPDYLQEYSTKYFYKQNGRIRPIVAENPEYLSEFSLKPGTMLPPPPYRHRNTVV
T1 sequence (P06494 23-1257 partner): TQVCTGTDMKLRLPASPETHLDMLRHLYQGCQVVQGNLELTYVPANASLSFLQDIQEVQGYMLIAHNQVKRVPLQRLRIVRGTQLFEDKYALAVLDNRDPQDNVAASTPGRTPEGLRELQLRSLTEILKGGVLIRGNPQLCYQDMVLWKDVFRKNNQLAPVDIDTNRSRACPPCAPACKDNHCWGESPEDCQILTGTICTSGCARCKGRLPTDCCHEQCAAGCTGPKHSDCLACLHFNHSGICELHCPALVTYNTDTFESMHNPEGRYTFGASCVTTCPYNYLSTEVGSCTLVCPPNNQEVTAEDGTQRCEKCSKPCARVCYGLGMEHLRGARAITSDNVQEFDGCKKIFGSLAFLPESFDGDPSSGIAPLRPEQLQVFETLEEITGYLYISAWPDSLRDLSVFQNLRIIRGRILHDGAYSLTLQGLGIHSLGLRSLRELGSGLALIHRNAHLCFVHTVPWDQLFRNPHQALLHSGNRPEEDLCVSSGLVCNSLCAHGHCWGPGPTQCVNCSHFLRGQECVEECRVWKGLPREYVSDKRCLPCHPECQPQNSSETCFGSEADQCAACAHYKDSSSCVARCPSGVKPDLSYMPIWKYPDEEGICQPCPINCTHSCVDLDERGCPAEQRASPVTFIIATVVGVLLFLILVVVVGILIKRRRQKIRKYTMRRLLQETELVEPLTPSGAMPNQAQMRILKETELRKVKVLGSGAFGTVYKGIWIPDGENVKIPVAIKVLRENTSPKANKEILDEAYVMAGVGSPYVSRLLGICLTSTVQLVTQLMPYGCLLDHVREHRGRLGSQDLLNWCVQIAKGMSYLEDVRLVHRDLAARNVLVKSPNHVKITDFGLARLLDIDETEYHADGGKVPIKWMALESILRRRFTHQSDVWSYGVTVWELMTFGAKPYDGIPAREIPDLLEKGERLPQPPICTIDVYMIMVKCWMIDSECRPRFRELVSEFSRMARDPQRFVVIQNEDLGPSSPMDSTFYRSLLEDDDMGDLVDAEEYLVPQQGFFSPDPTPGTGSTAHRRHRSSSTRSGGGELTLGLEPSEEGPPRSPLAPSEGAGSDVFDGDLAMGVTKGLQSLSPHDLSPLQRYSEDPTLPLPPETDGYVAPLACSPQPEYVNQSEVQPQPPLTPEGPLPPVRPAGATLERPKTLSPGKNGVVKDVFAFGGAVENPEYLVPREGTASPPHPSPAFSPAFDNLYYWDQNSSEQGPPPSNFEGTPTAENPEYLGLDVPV
Test: In vitro phosphorylation of Akt in neonatal rat cardiomyocytes
Type: cell-based
Details: top value of the Akt phosphorylation data points in cardiomyocytes; wild-type control 100
List of CM % Agonism AVG values.
assay readout: CM % Agonism AVG (%)

INSERT INTO measurements (molecule, assay_readout, measurement) VALUES
  ('huNRG1(S177-F229)(NRGE1C) 6xHis: 6xHis-tagged NRG1 variant SEQ ID NO:117 (protein, 6xHis tag; huNRG1(S177-F229)(NRGE1C) 6xHis) SHLVKCGEKHKSFCVNGGECFMIEGPSNPSRYLCKCPNEFTGDRCQEDFMASFGGGGEGGGGAGGGGHHHHHH', 'CM % Agonism AVG', 106),
  ('huNRG1(S177-F229)(NRGE1D) (E47S_D48S_F49E_M50L) 6xHis: 6xHis-tagged NRG1 variant SEQ ID NO:128 (protein, 6xHis tag; huNRG1(S177-F229)(NRGE1D) (E47S_D48S_F49E_M50L) 6xHis) SHLVKCGESHKSFCVNGGECYMVEGSSIPSRYLCKCPNEFTGDRCQSSELASFGGGGEGGGGAGGGGHHHHHH', 'CM % Agonism AVG', 96.05);
